assayed.target: DC-SIGN (DC-SIGNR/CD299) (Homo sapiens)
Sequence: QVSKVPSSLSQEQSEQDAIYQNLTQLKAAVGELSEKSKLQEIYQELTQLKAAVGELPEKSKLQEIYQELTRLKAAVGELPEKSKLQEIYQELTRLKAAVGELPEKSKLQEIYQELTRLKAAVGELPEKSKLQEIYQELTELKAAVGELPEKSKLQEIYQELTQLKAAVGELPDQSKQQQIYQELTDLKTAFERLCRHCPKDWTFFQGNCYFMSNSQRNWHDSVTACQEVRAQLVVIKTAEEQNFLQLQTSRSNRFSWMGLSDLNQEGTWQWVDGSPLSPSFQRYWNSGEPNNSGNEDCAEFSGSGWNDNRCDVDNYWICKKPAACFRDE
measurement.notes: flow
condition.notes: after the 5' primer region all dT replaced by 4 (alpha-D-mannose-triazole-modified C8-alkyne-dU); particle-displayed; SB with Mg, Ca, Mn
readout.label: pKd
Just the number, please; pKd means minus log10 of the concentration in mol/L.

Look up and state reported pKd for GATCCCAGTCCGAAGTAATCCAAGGGTAATTGGGAAATAAGGATGGGGTAATATGCAACCCTTGTGCAAACGGCTATAGG [D1] 8.44
